- System: A498
- protocol_text: Cytotoxicity against human A498 cells assessed as cell growth at 10 uM after 48 hrs by SRB assay relative to control
- Type: functional
- test_conditions: A498, 48 h, read-out: Activity
Reported growth at 10 µM values are given for each entry in this list.
measured_quantity: growth at 10 µM (%)

1) Cc1cc(C)cc(Sc2cc3c(c4nsnc24)C(=O)c2ccccc2C3=O)c1
93.6
2) Cc1ccccc1Sc1cc2c(c3nsnc13)C(=O)c1ccccc1C2=O
85.5
3) O=C1c2ccccc2C(=O)c2c1ccc1nsnc21
130
4) CSc1ccc(Sc2cc3c(c4nsnc24)C(=O)c2ccccc2C3=O)cc1
56
5) O=C1c2ccccc2C(=O)c2c1cc(Sc1ccccc1)c1nsnc21
95
6) COc1ccc(Sc2cc3c(c4nsnc24)C(=O)c2ccccc2C3=O)cc1
84.8
7) Cc1ccc(Sc2cc3c(c4nsnc24)C(=O)c2ccccc2C3=O)c(C)c1
84.4
8) O=C1c2ccccc2C(=O)c2c1cc(Sc1ccc(F)cc1F)c1nsnc21
50.8
9) O=C1c2ccccc2C(=O)c2c1cc(SCc1ccccc1)c1nsnc21
88.6
10) COc1cccc(Sc2cc3c(c4nsnc24)C(=O)c2ccccc2C3=O)c1
83.7
11) O=C1c2ccccc2C(=O)c2c1cc(Cl)c1nsnc21
93.8
12) O=C1c2ccccc2C(=O)c2c1cc(Sc1ccc(Cl)cc1)c1nsnc21
93
13) O=C1c2ccccc2C(=O)c2c1cc(Sc1ccccc1Br)c1nsnc21
24.2
14) O=C1c2ccccc2C(=O)c2c1cc(Sc1cc(Cl)ccc1Cl)c1nsnc21
87.7
